Procedure text: Solubility measurement in ethyl methyl ketone
Type: physicochemical
Condition context: concentration in ethyl methyl ketone solution where the compound was completely dissolved
Rule: Solubility below 10 % by mass gives yes (1). Equal to or above 10 % by mass gives no (0).

Solved cases (4 shown):
Challenge: Please determine if C=CC(=O)OCCCCOc1ccc(C#Cc2ccc(NC(=O)c3ccc(OCCCCOC(=O)C=C)cc3)c(F)c2)cc1 [Compound a-5] is below 10 % by mass in terms of Solubility.
Response given: no (0)

Challenge: Is Solubility of C=CC(=O)OCCCCOc1ccc(C#Cc2ccc(NC(=O)c3ccc(OCCCCOC(=O)C=C)cc3)c(C)c2)cc1 [Compound a-2] strictly below 10 % by mass?
Response given: no (0)

Challenge: A record lists C=CC(=O)OCCCCOc1ccc(C#Cc2ccc(NC(=O)c3ccc(OCCCCOC(=O)C=C)cc3)c(OC)c2)cc1 [Compound a-4] . Is its Solubility below 10 % by mass?
Response given: no (0)

Challenge: For C=CC(=O)OCCCCOc1ccc(C(=O)Nc2ccc(C#Cc3ccc4nc(SCCCCOC(=O)C=C)sc4c3)cc2C(F)(F)F)cc1 [Compound a-7] , is the recorded Solubility below the cut-off of 10 % by mass?
Response given: no (0)

Kindly review the next compound as well.
Challenge: Does the reported Solubility of the following compound sit strictly below 10 % by mass? C=CC(=O)OCCCCOc1ccc(C#Cc2ccc(NC(=O)c3ccc(OCCCCOC(=O)C=C)cc3)cc2)cc1 [Compound a-1]
Response given: yes (1)
